# experimental_system: Growth hormone secretagogue receptor type 1 (Mus musculus, UniProt Q99P50)
# Sequence (Q99P50 whole entry): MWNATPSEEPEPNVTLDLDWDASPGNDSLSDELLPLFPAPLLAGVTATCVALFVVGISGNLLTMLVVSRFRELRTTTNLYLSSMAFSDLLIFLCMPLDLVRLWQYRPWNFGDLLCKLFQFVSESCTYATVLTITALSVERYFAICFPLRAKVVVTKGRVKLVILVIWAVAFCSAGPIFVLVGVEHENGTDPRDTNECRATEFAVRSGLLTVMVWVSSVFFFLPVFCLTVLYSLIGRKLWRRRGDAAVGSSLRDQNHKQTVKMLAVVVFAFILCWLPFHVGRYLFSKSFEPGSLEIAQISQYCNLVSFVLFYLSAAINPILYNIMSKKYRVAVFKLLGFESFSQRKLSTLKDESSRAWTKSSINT
# test_description: Antagonist activity at mouse GHSR1 receptor assessed as intracellular Ca2+ concentration by aequorin luminescent assay
readout_name: IC50

Result for "CC(C)[C@H](C(=O)NC1CCN(Cc2ccccc2)CC1)N1CC(=O)Nc2ccc(Oc3ccccc3)cc2C1=O" , tested on Growth hormone secretagogue receptor type 1 (Mus musculus, UniProt Q99P50), IC50: 7 nM

* * *

Each entry below carries its reported remaining at 1 h.
# test_description: Metabolic stability in human liver S9 fraction assessed as compound remaining after 1 hr
# Type: ADME, subcellular
# applied_conditions: read-out: Stability
State just the number; it will be interpreted in %.

# example entries with known answers
smiles_record	readout_name	value_measured
CC(C)[C@H](C[C@H]1CC[C@@H](NCC2CC2)CC1)N1CCCc2ccc(Oc3ccc(F)cc3F)cc2C1=O	remaining at 1 h	92
CC(C)[C@H](C(=O)N1CCC(NCc2ccccc2)CC1)N1CC(=O)Nc2ccc(Oc3ccccc3)cc2C1=O	remaining at 1 h	62
CC(C)[C@H](C[C@H]1CC[C@@H](NCC2CC2)CC1)N1CC(=O)Nc2ccc(Oc3ccc(F)cc3F)cc2C1=O	remaining at 1 h	68
COc1cccc(Oc2ccc3c(c2)C(=O)N([C@@H](C(=O)NC2CCN(Cc4ccccc4)CC2)C(C)C)CC(=O)N3)c1	remaining at 1 h	22
CC(C)[C@H](C(=O)N1CCC(N[C@H](C)C2CCCCC2)CC1)N1CC(=O)Nc2ccc(Oc3ccccc3)cc2C1=O	remaining at 1 h	30

Entry under test: "CC(C)[C@H](C(=O)N1CCC(NCc2ccccc2)CC1)N1CC(=O)Nc2ccc(Oc3ccc(F)cc3F)cc2C1=O" . Its remaining at 1 h was 70

Entry under test: "Cc1ccccc1Oc1ccc2c(c1)C(=O)N([C@@H](C(=O)NC1CCN(Cc3ccccc3)CC1)C(C)C)CC(=O)N2" . Its remaining at 1 h was 5
